Target: UniProtKB Q194T2
Sequence (Q194T2 whole entry): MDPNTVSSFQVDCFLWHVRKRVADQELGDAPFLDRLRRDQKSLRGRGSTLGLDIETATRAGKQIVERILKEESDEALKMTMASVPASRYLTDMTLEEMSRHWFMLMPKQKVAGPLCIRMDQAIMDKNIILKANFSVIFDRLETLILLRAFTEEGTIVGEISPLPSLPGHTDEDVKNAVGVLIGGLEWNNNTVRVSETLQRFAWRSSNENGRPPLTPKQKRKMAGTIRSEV
Assay type: functional, Influenza A virus (A/California/07/2009(H1N1))
Activity calls are given as the source filed them.
outcome measure: IC50

Use these answered entries as a reference point.
>  <smiles str>
Cc1cc(N(C)C)ccc1N=Nc1ccc2ncccc2c1

>  <IC50>
9.43 µM (active)

$$$$
>  <smiles str>
Cc1ncc(CO)c(/C=N/NC(=O)c2cc3c(s2)CCCC3)c1O

>  <IC50>
11.9 µM (active)

$$$$
>  <smiles str>
CN(C)c1ccc(NC(=O)CN2C(=O)CN=C(c3ccccc3)c3cc(Cl)ccc32)cc1

>  <IC50>
31 µM (active)

$$$$
>  <smiles str>
CN1CCN(c2cc(N3CCN(C(=O)c4ccco4)CC3)c3c4c(onc24)-c2ccccc2C3=O)CC1

>  <IC50>
15.3 µM (active)

$$$$

Please turn your attention to the following entry.
Q: Please supply the value of reported IC50 for the item `COc1cc([N+](=O)[O-])cc(/C=N/NC(=O)c2ccc(C)nc2)c1O`
A: 5.49 µM (active)
